Hi there, I'd appreciate the recorded MIC for every entry that follows.
System: Enterobacter cloacae K 84-10
Assay: in vitro antibacterial MIC, agar plate dilution
Assay type: cell-based
Conditions: Enterobacter cloacae, K8410, 18 h, 35° C., read-out: MIC
Hey, just the number and the unit after it is fine.

Query: Given the compound O=C(O)c1cn(C2CC2)c2cc(N3CCNC(CF)C3)c(F)cc2c1=O (stereo not shown) , write its reported MIC.
Reply: 0.03 µg/mL

Query: # return recorded MIC for input CCn1cc(C(=O)O)c(=O)c2cc(F)c(N3CCNC(c4ccsc4)C3)cc21 (stereo not shown)
Reply: 0.5 µg/mL

Query: Input CCn1cc(C(=O)O)c(=O)c2cc(F)c(N3CCNC(CF)C3)c(F)c21 (single isomer, unassigned; (-)) [Example 64] , output reported MIC.
Reply: 0.06 µg/mL

Query: Return MIC for the following compound: O=C(O)c1cn(C2CC2)c2cc(N3CCNC(c4ccccn4)C3)c(F)cc2c1=O (stereo not shown)
Reply: 0.12 µg/mL

* * *

Exercise: state measured MIC for each of the molecules provided.
Test system: Serratia marcescens K 84-18
Test: in vitro antibacterial MIC, agar plate dilution
Assay type: cell-based
Conditions: 18 hours, 35° C.
Kindly answer with a numeric value in µg/mL, unit omitted.

Query: Supply measured MIC of CCn1cc(C(=O)O)c(=O)c2cc(F)c(N3CCN(C)C(CF)C3)c(F)c21 (single isomer, unassigned; (+)) in your reply.
Reply: 2

Query: Give the reported value of MIC for this record: CCn1cc(C(=O)O)c(=O)c2cc(F)c(N3CCNC(CF)C3)c(F)c21 (single isomer, unassigned; (+))
Reply: 0.25

Query: Report MIC for O=C(O)c1cn(C2CC2)c2cc(N3CCNC(C4CC4)C3)c(F)cc2c1=O (centres unmarked) [Example 124]
Reply: 0.12

* * *

Record type: MIC measurement. Applies to: Klebsiella oxytoca MOR 84-28
Provide only the numeric value, understood in µg/mL.

Query: Consider the compound `CCn1cc(C(=O)O)c(=O)c2cc(F)c(N3CCN(C)CC3)c(F)c21` and give its recorded MIC.
Reply: 0.06

Query: For the compound `CCn1cc(C(=O)O)c(=O)c2c(F)c(F)c(N3CCN(C)CC3)c(F)c21` , give its measured MIC value.
Reply: 1

Query: Hello, please tell me recorded MIC for this one: O=C(O)c1cn(-c2ccc(F)cc2)c2cc(N3CCNC(c4ccco4)C3)c(F)cc2c1=O (centres unmarked)
Reply: 0.12

Query: Return the recorded MIC value; entry: O=C(O)c1cn(C2CC2)c2cc(N3CCNC(c4ccco4)C3)c(F)cc2c1=O (centres unmarked)
Reply: 0.06

* * *

Test system: Staphylococcus aureus VGH 84-45
Assay: in vitro antibacterial MIC, agar plate dilution
Format: cell-based
Conditions: Staphylococcus aureus, VGH8445, 18 h, 35° C., read-out: MIC
Where a name gives a salt, the structure may show the parent alone.
Measured Property: MIC

Query: Write MIC of CCn1cc(C(=O)O)c(=O)c2cc(F)c(N3CCNC(c4ccco4)C3)cc21 (stereo not drawn) ; system used: Staphylococcus aureus VGH 84-45
Reply: ≤ 0.06 µg/mL

Query: // output MIC; input CN1CCN(c2cc3c(cc2F)c(=O)c(C(=O)O)cn3C2CC2)CC1c1ccsc1 (stereo not drawn) ; system Staphylococcus aureus VGH 84-45
Reply: 0.03 µg/mL

Query: Name the recorded MIC of CCn1cc(C(=O)O)c(=O)c2cc(F)c(N3CCNC(CNC)C3)cc21.Cl.Cl (stereo not drawn) , assay system Staphylococcus aureus VGH 84-45.
Reply: 16 µg/mL

Query: Fetch value of MIC on Staphylococcus aureus VGH 84-45 for O=C(O)c1cn(-c2ccc(F)cc2)c2cc(N3CCNC(c4ccsc4)C3)c(F)cc2c1=O (stereo not drawn) .
Reply: 0.03 µg/mL

Query: Look up and report measured MIC (Staphylococcus aureus VGH 84-45) for the following molecule: CCCCCCCCCCCCOCC1CN(c2cc3c(cc2F)c(=O)c(C(=O)O)cn3CC)CCN1C (stereo not drawn)
Reply: > 256 µg/mL

Query: Consider the molecule CN1CCN(c2cc3c(cc2F)c(=O)c(C(=O)O)cn3C2CC2)CC1C1CC1 (stereo not drawn) tested on Staphylococcus aureus VGH 84-45; state its MIC.
Reply: 0.12 µg/mL

Query: Print Staphylococcus aureus VGH 84-45 MIC for CCn1cc(C(=O)O)c(=O)c2cc(F)c(N3CCNC(c4ccsc4)C3)cc21 (stereo not drawn) .
Reply: 0.25 µg/mL

Query: Enter recorded MIC with Staphylococcus aureus VGH 84-45 for O=C(O)c1cn(C2CC2)c2cc(N3CCNC(COc4ccccc4)C3)c(F)cc2c1=O (stereo not drawn) here.
Reply: 0.03 µg/mL

Query: Look up and report measured MIC (Staphylococcus aureus VGH 84-45) for the following molecule: O=C(O)c1cn(C2CC2)c2cc(N3CCNC(CF)C3)c(F)cc2c1=O (stereo not drawn)
Reply: 0.25 µg/mL

Query: Write MIC of CCn1cc(C(=O)O)c(=O)c2cc(F)c(N3CCNC(c4ccoc4)C3)cc21 (stereo not drawn) ; system used: Staphylococcus aureus VGH 84-45
Reply: 0.12 µg/mL

Query: Please report the measured MIC for O=C(O)c1cn(C2CC2)c2cc(N3CCNC(c4ccco4)C3)c(F)cc2c1=O (stereo not drawn) [Example 99, monohydrochloride] tested on Staphylococcus aureus VGH 84-45.
Reply: < 0.015 µg/mL

Query: Param request: MIC | system Staphylococcus aureus VGH 84-45 | item CCCCCCOCC1CN(c2cc3c(cc2F)c(=O)c(C(=O)O)cn3CC)CCN1 (stereo not drawn)
Reply: 0.5 µg/mL

Query: Please look at CCn1cc(C(=O)O)c(=O)c2cc(F)c(N3CCN(C)C(c4ccn(C)n4)C3)cc21 (stereo not drawn) and tell me its recorded MIC on Staphylococcus aureus VGH 84-45.
Reply: 0.5 µg/mL

Query: Look up and report measured MIC (Staphylococcus aureus VGH 84-45) for the following molecule: O=C(O)c1cn(C2CC2)c2cc(N3CCNC(c4ccoc4)C3)c(F)cc2c1=O (stereo not drawn)
Reply: 0.03 µg/mL

Query: State measured MIC of the molecule CCCCCCCCCCCCOCC1CN(c2cc3c(cc2F)c(=O)c(C(=O)O)cn3CC)CCN1 (stereo not drawn) with Staphylococcus aureus VGH 84-45.
Reply: 128 µg/mL

Query: Send back Staphylococcus aureus VGH 84-45 MIC of CCn1cc(C(=O)O)c(=O)c2c(F)c(F)c(N3CCNC(c4ccsc4)C3)c(F)c21 (stereo not drawn) only.
Reply: 0.25 µg/mL

Query: Lab note: Staphylococcus aureus VGH 84-45 assay, enter MIC for CCn1cc(C(=O)O)c(=O)c2cc(F)c(N3CCNC(c4ccccn4)C3)c(F)c21 (stereo not drawn) here
Reply: 0.12 µg/mL

Query: State measured MIC of the molecule CCCCCCOCC1CN(c2cc3c(cc2F)c(=O)c(C(=O)O)cn3CC)CCN1C (stereo not drawn) with Staphylococcus aureus VGH 84-45.
Reply: 8 µg/mL

Query: Would you please give the reported MIC of CCn1cc(C(=O)O)c(=O)c2cc(F)c(N3CCNC(c4ccncc4)C3)c(F)c21 (stereo not drawn) with Staphylococcus aureus VGH 84-45?
Reply: 0.12 µg/mL

Query: Report MIC under test system Staphylococcus aureus VGH 84-45 for CCn1cc(C(=O)O)c(=O)c2cc(F)c(N3CCN(C)C(CF)C3)c(F)c21 (single isomer, unassigned) [Example 114] .
Reply: 0.25 µg/mL

Query: Given CCn1cc(C(=O)O)c(=O)c2cc(F)c(N3CCNC(C(C)(F)F)C3)c(F)c21 (stereo not drawn) , report its MIC on Staphylococcus aureus VGH 84-45.
Reply: 0.5 µg/mL

Query: # lookup: Staphylococcus aureus VGH 84-45 MIC, key = CCn1cc(C(=O)O)c(=O)c2cc(F)c(N3CCN(C)C(c4cc5cc(Cl)ccc5o4)C3)cc21 (stereo not drawn)
Reply: 16 µg/mL

Query: Find the measured MIC of CCn1cc(C(=O)O)c(=O)c2cc(F)c(N3CCN(C)C(c4ccnn4C)C3)cc21 (stereo not drawn) with Staphylococcus aureus VGH 84-45 as test system.
Reply: 0.5 µg/mL

Query: Write down measured MIC (Staphylococcus aureus VGH 84-45) for this molecule. COCC1CN(c2cc3c(cc2F)c(=O)c(C(=O)O)cn3-c2ccc(F)cc2)CCN1 (stereo not drawn)
Reply: 0.12 µg/mL
